Every entry's value here was drawn from patent US4593036A.

assayName: in vivo
conditionSet: mouse, in vivo, sc
measuredMetric: selectivity ratio
// return a plain number; no unit text

Query: Could you tell me which selectivity ratio is on file for COc1ccc(OC[C@@H]2CNCC[C@H]2c2ccccc2)cc1 (single isomer, unassigned) [FG 7006, reference compound] ?
Reply: 18
